Test system: LC-2-ad
Test: relative viability (nuclei count vs DMSO), 5 days (fraction); higher = more cells survive
Details: first compound 0.000632 µM
Could you mark each record rule met if its relative viability falls strictly under 0.5, and rule not met if it equals or exceeds it?

compound	study.target	classification
CC(=O)O[C@@]12CO[C@@H]1C[C@H](O)[C@@]1(C)C(=O)[C@H](O)C3=C(C)[C@@H](OC(=O)[C@H](O)[C@@H](NC(=O)OC(C)(C)C)c4ccccc4)C[C@@](O)([C@@H](OC(=O)c4ccccc4)[C@H]21)C3(C)C [Docetaxel] + COc1cccc2cc(-c3nc([C@H]4CC[C@H](C(=O)O)CC4)n4ncnc(N)c34)[nH]c12 [OSI-027] (partner 0.5 µM)	LC-2-ad	rule not met

Enquiry: Given CC(=O)O[C@@]12CO[C@@H]1C[C@H](O)[C@@]1(C)C(=O)[C@H](O)C3=C(C)[C@@H](OC(=O)[C@H](O)[C@@H](NC(=O)OC(C)(C)C)c4ccccc4)C[C@@](O)([C@@H](OC(=O)c4ccccc4)[C@H]21)C3(C)C [Docetaxel] + CCNC(=O)c1noc(-c2cc(C(C)C)c(O)cc2O)c1-c1ccc(CN2CCOCC2)cc1 [Luminespib] (partner 0.01 µM) , is recorded relative viability strictly lower than 0.5?
Return: rule not met

Enquiry: What about this compound? CC(=O)O[C@@]12CO[C@@H]1C[C@H](O)[C@@]1(C)C(=O)[C@H](O)C3=C(C)[C@@H](OC(=O)[C@H](O)[C@@H](NC(=O)OC(C)(C)C)c4ccccc4)C[C@@](O)([C@@H](OC(=O)c4ccccc4)[C@H]21)C3(C)C [Docetaxel] + C[C@@H](Oc1cc(-c2cnn(C3CCNCC3)c2)cnc1N)c1c(Cl)ccc(F)c1Cl [Crizotinib] (partner 1 µM)
Return: rule met

Enquiry: // repeat for CC(=O)O[C@@]12CO[C@@H]1C[C@H](O)[C@@]1(C)C(=O)[C@H](O)C3=C(C)[C@@H](OC(=O)[C@H](O)[C@@H](NC(=O)OC(C)(C)C)c4ccccc4)C[C@@](O)([C@@H](OC(=O)c4ccccc4)[C@H]21)C3(C)C [Docetaxel] + CC(=O)Nc1cccc(-n2c(=O)n(C3CC3)c(=O)c3c(Nc4ccc(I)cc4F)n(C)c(=O)c(C)c32)c1 [Trametinib] (partner 0.02 µM) and report
Return: rule not met

----------
Test system: HCC-15
Test: relative viability (nuclei count vs DMSO), 5 days (fraction); higher = more cells survive
Details: first compound 0.8 µM
Hi there, I'd appreciate the recorded relative viability for every entry that follows.
Answers are plain numbers.

molecule	relative viability
O=c1[nH]c2ccccc2n1C1CCN(CCCC(c2ccc(F)cc2)c2ccc(F)cc2)CC1 [Pimozide] + CC(=O)c1c(C)c2cnc(Nc3ccc(N4CCNCC4)cn3)nc2n(C2CCCC2)c1=O [Palbociclib] (partner 0.5 µM)	0.673

Dear reader, for each entry below, please note its relative viability.
1. Cc1cnc(-c2cnc(NCCNc3ccc(C#N)cn3)nc2-c2ccc(Cl)cc2Cl)[nH]1 + CS(=O)(=O)N1CCN(Cc2cc3nc(-c4cccc5[nH]ncc45)nc(N4CCOCC4)c3s2)CC1 [Pictilisib] (partner 1 µM)
2. O=c1[nH]c2ccccc2n1C1CCN(CCCC(c2ccc(F)cc2)c2ccc(F)cc2)CC1 [Pimozide] + Nc1nc2[nH]cc(CCc3ccc(C(=O)N[C@@H](CCC(=O)O)C(=O)O)cc3)c2c(=O)[nH]1 [Pemetrexed] (partner 0.2 µM)
3. O=c1[nH]c2ccccc2n1C1CCN(CCCC(c2ccc(F)cc2)c2ccc(F)cc2)CC1 [Pimozide] + Cc1nc(Nc2ncc(C(=O)Nc3c(C)cccc3Cl)s2)cc(N2CCN(CCO)CC2)n1 [Dasatinib] (partner 0.075 µM)

Return:
1. 0.746
2. 0.221
3. 0.551
